Biological target: CBP (Homo sapiens (Human))
Sequence (Q92793 1081-1197): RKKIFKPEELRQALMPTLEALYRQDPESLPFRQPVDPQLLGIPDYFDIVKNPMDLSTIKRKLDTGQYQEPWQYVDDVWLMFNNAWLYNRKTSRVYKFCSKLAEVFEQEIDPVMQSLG
Assay: In vitro CBP inhibition (AlphaScreen, biotinylated H4-tetraacetyl peptide)
Assay type: binding
Settings: AlphaScreen, Table 29; read-out: CBP IC50
pIC50: −log10 of the molar value.
Quantity kind: pIC50

{"Molecule": "Cc1ccc(-c2cc(=O)n(C)cc2-c2cnn(-c3cccc(F)c3C#N)c2)cn1", "pIC50": "> 6.30"}

Proceeding to the next molecule to report its pIC50.
In: GET /values?readout=pIC50&item= CCOc1cc(=O)n(C)cc1-c1cnn(-c2cc(OC3CC3)ccc2C#N)c1
Out: > 6.30

====

Molecular target: CBP (Homo sapiens (Human))
Assay: In vitro CBP inhibition (AlphaScreen, biotinylated H4-tetraacetyl peptide)
Format: binding
Details: AlphaScreen, Table 29; read-out: CBP IC50
Quantity kind: IC50

{"Compound": "CC(c1ccccc1)n1cc(-c2cc(N(C)C)c(=O)n(C)c2)cn1 (centres unmarked)", "Experimental target": "CBP (Homo sapiens (Human))", "IC50": "500 to 5000 nM"}
{"Compound": "Cc1nn(C)c(C)c1-c1cn(C)c(=O)cc1-c1ccccc1", "Experimental target": "CBP (Homo sapiens (Human))", "IC50": "500 to 5000 nM"}
{"Compound": "Cn1cc(-c2cnn(Cc3ccccc3)c2)c(-n2ccc(C(N)=O)c2)cc1=O", "Experimental target": "CBP (Homo sapiens (Human))", "IC50": "< 500 nM"}
{"Compound": "CCOc1ccc(-c2cc(=O)n(C)cc2-c2cnn(-c3cccc(Cl)c3C#N)c2)cn1", "Experimental target": "CBP (Homo sapiens (Human))", "IC50": "< 500 nM"}

In: Fill in: IC50 of Cn1cc(-c2cnn(Cc3ccccc3)c2)c(NCCC(=O)O)cc1=O is ___
Out: < 500 nM
